I'd be grateful if you could share measured composite z-score for these entries.
target entity: Dihydroorotate dehydrogenase (quinone), mitochondrial (Plasmodium falciparum (isolate 3D7))
experimental details: inhibition of P. falciparum DHODH – biochemical, C-terminal His tag, absorbance 600 nm, primary screen (AID 1175);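 note: recombinant parasite enzyme with a five histidine tag at its C terminus; test concentration not given here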
condition label: PfDHODH enzyme, DCIP absorbance 600 nm; higher = more signal, called active from +8 up or from −8 down
Answers are plain numbers.

Take a look at these entries with their results.
O=C(CS)NCCCCCNC(=O)[C@H]1C[C@H]2C(=O)NCC(=O)N2[C@H]1c1cccc(OCCO)c1 ... 0.258
OCCCC1=CC(C2CC2)N(Cc2cccc(OC(F)(F)F)c2)CC1 (centres undefined) ... -3.08
COCCCNC(=O)[C@@]1(Cc2ccccc2CN=[N+]=[N-])N=C(c2ccc(OCCCO)cc2)O[C@H]1c1ccccc1CN=[N+]=[N-] ... 1.06

# evaluate next
Challenge: Using the record for CC1CC/C=C\[C@H]2OC34C=CCN(c5ccc6ccccc6c5)C(=O)[C@H]3N(CCO)C(=O)[C@@H]4C2C(=O)O1 (some centres undefined) , report its composite z-score.
Response given: -0.509
